Cited source: PubChem BioAssay (NCI)

Listing of entries alongside the reported TGI.
System: HS 578T breast
Experiment summary: NCI tumour cell line growth inhibition, 48 h

Sample records with TGI:
Which value of TGI has been reported for `COc1cc(/C=C/c2sc3ccccc3[n+]2C)ccc1N(C)C` in the records?
> 100 µM

Which value of TGI has been reported for `CC(=O)N1CC[N+](C)(CCCCN2c3ccccc3Sc3cc(N=[N+]=[N-])ccc32)CC1` in the records?
> 100 µM

Further cases:
Which value of TGI has been reported for `COc1cc(-n2cc(-c3ccc(F)cc3)[nH]c2=S)cc(OC)c1OC` in the records?
> 100 µM

Which value of TGI has been reported for `c1ccc(/N=N\Nc2ccc(-c3nc4ccccc4o3)cc2)nc1` in the records?
> 100 µM

Which value of TGI has been reported for `COc1cc(Nc2ncc3c(C)nc(-c4cccc(Oc5ccccc5)c4)n3n2)cc(OC)c1OC` in the records?
> 25 µM

====

Tested on: XF 498 CNS
Experiment summary: NCI tumour cell line growth inhibition, 48 h
Experimental endpoint: TGI

Sample records with TGI:
Which value of TGI has been reported for CCN(CC)CCC(=O)N1CCc2c([nH]c3ccccc23)C1c1cccnc1 (stereo not given) in the records?
> 100 µM

Which value of TGI has been reported for O=c1[nH]c(=O)n(C2CC(O)C(CO)O2)cc1C#Cc1cc(C(F)(F)F)cc(C(F)(F)F)c1 (stereo not given) in the records?
> 86.6 µM

Which value of TGI has been reported for N#CCc1ccc(/C(C#N)=C2/OC(=N)C(c3ccc(CC#N)cc3)C2=O)cc1 (stereo not given) in the records?
> 100 µM

Which value of TGI has been reported for `O=C1CCCC(=O)C1=C(O)CCCCCCCCCCc1ccccc1` in the records?
> 100 µM

Further cases:
Which value of TGI has been reported for COc1ccc(CC2NCCc3cc(OC)c(OC)cc32)cc1 (stereo not given) in the records?
> 100 µM

====

System: HCT-15 colon
Experiment summary: NCI tumour cell line growth inhibition, 48 h
Listing of entries alongside the reported TGI.

Sample records with TGI:
Which value of TGI has been reported for CC(=O)Nc1ccc(S(=O)(=O)[N-]C2C(=O)c3ccccc3C(=O)C2[n+]2ccccc2)cc1 (centres undefined) in the records?
> 100 µM

Which value of TGI has been reported for `COc1ccccc1-c1nc2ccccc2c(=O)[nH]1` in the records?
> 100 µM

Which value of TGI has been reported for CC(C)C(Sc1nc(-c2ccccc2)c(-c2ccccc2)[nH]1)C(=O)N/N=C/c1ccc([N+](=O)[O-])cc1 (centres undefined) in the records?
36.5 µM

Which value of TGI has been reported for `CCCC(=O)/C=C/S/C=C/C(=O)CCC` in the records?
8.22 µM

Further cases:
Which value of TGI has been reported for `Cn1ccnc1C(=O)/C=C/c1ccc(C(=O)Nc2ccccc2O)cc1` in the records?
5.49 µM

Which value of TGI has been reported for C/C1=C\CC[C@@]2(C)O[C@@H]2C[C@@H]2[C@H](C/C(C)=C/CC1)OC(=O)C21CCN=N1 (some centres undefined) in the records?
> 100 µM

Which value of TGI has been reported for `Fc1ccc(NCn2nc(COc3ccccc3Cl)n(/N=C/c3ccc(-c4ccc(Cl)cc4Cl)o3)c2=S)cc1Cl` in the records?
> 100 µM

Which value of TGI has been reported for `C=CCOC(=O)CCCCCCCCCCCCCCCOC(=O)c1c(CCC[C@@H](C)O[Si](C)(C)C(C)(C)C)nc(=O)n2c1CC[C@H]2CC1(CC/C=C\[C@H](CC)O[Si](C(C)C)(C(C)C)C(C)C)OCCO1` in the records?
> 100 µM

Which value of TGI has been reported for `CO/N=C(\COc1ccc2c(c1)oc(=O)c1cc(OC)ccc12)c1ccc(F)cc1` in the records?
81.9 µM

Which value of TGI has been reported for `C[N+](C)(C)Cc1c(CC#N)[nH]c2ccccc12` in the records?
> 100 µM

Which value of TGI has been reported for `O=C(Nc1ccccc1)Nn1c(-c2cccs2)nc2ccc(I)cc2c1=O` in the records?
> 100 µM

Which value of TGI has been reported for `CCCN1CN(c2ccccc2)C2(CCN(CCCC(=O)c3ccc(F)cc3)CC2)C1=O` in the records?
16.9 µM

Which value of TGI has been reported for `COC(=O)c1cc2c3ccccc3n3c(=O)c4cc5cc(OC)c(N(S(=O)(=O)c6ccc(C)cc6)S(=O)(=O)c6ccc(C)cc6)cc5nc4c(n1)c23` in the records?
> 100 µM

Which value of TGI has been reported for `CN(C)CC(C)(C)C(/C=C/c1ccccc1)=N\Nc1ccccc1` in the records?
2.46 µM
